Assign AC50 to each entry below.
- TGT: Thromboxane A2 receptor (Homo sapiens)
- Sequence (P21731 whole entry): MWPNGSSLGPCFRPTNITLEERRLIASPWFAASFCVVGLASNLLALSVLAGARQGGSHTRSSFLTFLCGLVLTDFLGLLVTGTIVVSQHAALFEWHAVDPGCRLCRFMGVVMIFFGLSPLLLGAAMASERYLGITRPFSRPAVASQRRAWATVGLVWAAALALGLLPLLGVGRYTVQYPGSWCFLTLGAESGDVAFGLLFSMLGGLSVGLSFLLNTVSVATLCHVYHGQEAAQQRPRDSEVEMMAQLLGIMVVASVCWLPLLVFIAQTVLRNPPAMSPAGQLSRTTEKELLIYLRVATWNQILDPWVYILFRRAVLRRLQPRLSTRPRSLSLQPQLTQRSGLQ
- Type: functional, cell-based

Q: Return reported AC50; argument: CN(C)CCCC1(c2ccc(F)cc2)OCc2cc(C#N)ccc21 (stereo not drawn) [CITALOPRAM]
Ans: > 30 µM

Q: How about C[C@H](Nc1ncnc2[nH]cnc12)c1cc2cccc(Cl)c2c(=O)n1-c1ccccc1 [DUVELISIB] ?
Ans: 15.1 µM

Q: How about O=C1[C@@H]2[C@H]3CC[C@H](C3)[C@@H]2C(=O)N1C[C@@H]1CCCC[C@H]1CN1CCN(c2nsc3ccccc23)CC1 [LURASIDONE] ?
Ans: > 30 µM

Q: How about N=C(N)NCC1COc2ccccc2O1 (stereo not drawn) [GUANOXAN] ?
Ans: 19.9 µM

Q: How about CC(C)NC[C@H](O)COc1ccc(O)cc1 [PRENALTEROL] ?
Ans: > 30 µM

Q: How about NS(=O)(=O)c1cc2c(cc1Cl)NC(C(Cl)Cl)NS2(=O)=O (stereo not drawn) [TRICHLORMETHIAZIDE] ?
Ans: > 30 µM

Q: How about CO[C@@]1(NC(=O)C(C(=O)O)c2ccc(O)cc2)C(=O)N2C(C(=O)O)=C(CSc3nnnn3C)CO[C@@H]21 (stereo partly drawn) [MOXALACTAM] ?
Ans: > 30 µM

Q: How about Cc1ncc(CO)c(CO)c1O [PYRIDOXINE] ?
Ans: > 30 µM

----------
The reader will find AC50 measurements below, all made with Beta-2 adrenergic receptor (Homo sapiens, UniProt P07550).
Sequence (P07550 whole entry): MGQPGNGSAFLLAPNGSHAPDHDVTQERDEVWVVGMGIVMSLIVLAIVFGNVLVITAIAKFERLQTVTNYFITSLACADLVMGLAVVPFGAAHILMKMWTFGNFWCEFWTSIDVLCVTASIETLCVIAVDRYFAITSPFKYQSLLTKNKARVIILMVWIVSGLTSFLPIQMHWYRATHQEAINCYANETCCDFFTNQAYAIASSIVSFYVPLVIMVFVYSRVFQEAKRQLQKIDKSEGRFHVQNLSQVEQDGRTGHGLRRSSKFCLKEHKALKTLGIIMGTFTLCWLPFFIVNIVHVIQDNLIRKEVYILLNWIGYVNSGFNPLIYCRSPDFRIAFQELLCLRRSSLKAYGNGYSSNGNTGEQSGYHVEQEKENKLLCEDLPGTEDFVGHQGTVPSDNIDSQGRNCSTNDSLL

Q: Reported AC50 for Beta-2 adrenergic receptor (Homo sapiens, UniProt P07550), given NCC1(CC(=O)O)CCCCC1 ?
Ans: > 10 µM

Q: How about N=C(N)NC(=O)Cc1c(Cl)cccc1Cl ?
Ans: > 10 µM

Q: How about O=C(O)COC(=O)Cc1ccccc1Nc1c(Cl)cccc1Cl ?
Ans: > 10 µM

Q: How about CCN(CC)CCn1c(=O)c(Cc2ccc(OC)cc2)nc2ccccc21 ?
Ans: > 30 µM

Q: How about CCN(CC)CCCN(c1ccccc1)C1Cc2ccccc2C1 ?
Ans: > 10 µM

----------
Assign AC50 to each entry below.
- TGT: Muscarinic acetylcholine receptor M1 (Homo sapiens, UniProt P11229)
- Sequence (P11229 whole entry): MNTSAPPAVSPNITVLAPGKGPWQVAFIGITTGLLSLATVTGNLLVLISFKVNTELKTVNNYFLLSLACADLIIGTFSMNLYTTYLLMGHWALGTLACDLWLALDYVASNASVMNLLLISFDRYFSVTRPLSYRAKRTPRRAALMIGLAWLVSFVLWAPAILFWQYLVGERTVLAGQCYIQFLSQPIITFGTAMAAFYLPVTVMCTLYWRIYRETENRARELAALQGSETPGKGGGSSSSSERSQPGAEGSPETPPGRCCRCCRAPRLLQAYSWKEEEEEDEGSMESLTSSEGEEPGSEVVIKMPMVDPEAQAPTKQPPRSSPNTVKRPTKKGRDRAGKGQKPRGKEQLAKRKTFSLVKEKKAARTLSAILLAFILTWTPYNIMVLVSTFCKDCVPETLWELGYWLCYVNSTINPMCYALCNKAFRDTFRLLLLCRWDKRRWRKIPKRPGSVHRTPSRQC
- Assay type: functional, cell-based

Q: Return reported AC50; argument: CCCCCCO[C@@H](C)c1cccc(-c2csc(NC(=O)c3cc(Cl)c(/C=C(\C)C(=O)O)c(Cl)c3)n2)c1OC
Ans: 16.2 µM

Q: How about CC(C)NC[C@H](O)COc1ccc(O)cc1 ?
Ans: > 30 µM

Q: How about Cn1c(CCCC(=O)O)nc2cc(N(CCCl)CCCl)ccc21 ?
Ans: > 30 µM

Q: How about CC(C)=CCC/C(C)=C/CC/C(C)=C/CC/C(C)=C/CC1=C(C)C(=O)c2ccccc2C1=O ?
Ans: > 30 µM

Q: How about CNC(=O)c1cnn(-c2nc(N)c3ncn([C@@H]4O[C@H](CO)[C@@H](O)[C@H]4O)c3n2)c1 [REGADENOSON ANHYDROUS] ?
Ans: > 30 µM

Q: How about CC(C)Cc1ccc(C(C)C(=O)OCc2ccccn2)cc1 (stereo not given) ?
Ans: > 10 µM

Q: How about O=C1Nc2ccccc2C1(c1ccc(O)cc1)c1ccc(O)cc1 ?
Ans: > 30 µM

Q: How about N#Cc1ccnc(N2C(=O)CC[C@H]2C(=O)N(c2cncc(F)c2)[C@H](C(=O)NC2CC(F)(F)C2)c2ccccc2Cl)c1 ?
Ans: > 30 µM

Q: How about N[C@@H](Cc1ccc(O)cc1)C(=O)O ?
Ans: > 30 µM

Q: How about Cc1cc(C)cc(OCC2CNC(=O)O2)c1 (stereo not given) ?
Ans: > 30 µM
